# reported inhibition; entries follow
target: Adenosine receptor A2a (Homo sapiens, UniProt P29274); experiment: Displacement of [3H]ZM241385 from human recombinant A2A receptor expressed in human HeLa cell membranes at 1 uM incubated for 30 mins by radioligand binding competition assay relative to control
Sequence (P29274 whole entry): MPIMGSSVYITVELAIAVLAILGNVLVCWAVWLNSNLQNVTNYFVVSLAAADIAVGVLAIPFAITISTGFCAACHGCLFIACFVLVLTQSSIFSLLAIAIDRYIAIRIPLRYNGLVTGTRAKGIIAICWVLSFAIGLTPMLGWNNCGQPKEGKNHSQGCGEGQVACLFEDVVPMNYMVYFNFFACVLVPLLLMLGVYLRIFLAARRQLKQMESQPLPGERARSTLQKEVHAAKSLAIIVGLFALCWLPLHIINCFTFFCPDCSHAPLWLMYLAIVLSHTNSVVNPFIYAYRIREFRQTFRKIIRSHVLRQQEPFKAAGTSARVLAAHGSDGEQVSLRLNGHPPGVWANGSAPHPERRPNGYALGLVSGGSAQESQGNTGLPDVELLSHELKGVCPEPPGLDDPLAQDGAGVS
Quick reminder: number only, in %, skip the unit.

Consider the worked cases shown below.
[
  {
    "MOLECULE": "CC1=C(C(=O)OC(C(F)(F)F)C(F)(F)F)C(c2ccco2)n2c(nc3ccccc32)N1 (racemic)",
    "inhibition (%)": 2
  },
  {
    "MOLECULE": "CC1=C(C(=O)OC(C)C(F)(F)F)C(c2ccsc2)NC(=O)N1 (stereo in doubt; 14l-D2)",
    "inhibition (%)": 2
  },
  {
    "MOLECULE": "CC1=C(C(=O)OC(C(F)(F)F)C(F)(F)F)C(c2ccoc2)n2c(nc3ccccc32)N1 (racemic)",
    "inhibition (%)": 10
  },
  {
    "MOLECULE": "CC1=C(C(=O)OCC(F)(F)F)C(c2ccoc2)NC(=O)N1 (racemic)",
    "inhibition (%)": 9
  }
]

Proceeding to the next molecule to report its inhibition.
Could you share which inhibition value was measured for CC(C)OC(=O)C1=C(C(F)(F)F)NC(=O)NC1c1ccoc1 (racemic) ?
21

---

# reported inhibition; entries follow
molecular target: Adenosine receptor A1 (Homo sapiens); test: Displacement of [3H]DPCPX from human recombinant A1 receptor expressed in CHOA1 cell membranes at 1 uM incubated for 60 mins by radioligand binding competition assay relative to control
Quick reminder: number only, in %, skip the unit.

[
  {
    "COMPOUND": "CC(C)OC(=O)C1=C(C(F)(F)F)Nc2nc3ccccc3n2C1c1ccsc1 (racemic)",
    "TESTED_SYSTEM": "Adenosine receptor A1 (Homo sapiens)",
    "OBSERVED_MEASUREMENT": 10
  },
  {
    "COMPOUND": "CC1=C(C(=O)OC(C)C(F)(F)F)C(c2ccoc2)NC(=O)N1 (stereo in doubt; 14j-D2)",
    "TESTED_SYSTEM": "Adenosine receptor A1 (Homo sapiens)",
    "OBSERVED_MEASUREMENT": 1
  },
  {
    "COMPOUND": "CC1=C(C(=O)OCC(F)(F)F)C(c2ccco2)n2c(nc3ccccc32)N1 (racemic)",
    "TESTED_SYSTEM": "Adenosine receptor A1 (Homo sapiens)",
    "OBSERVED_MEASUREMENT": 16
  },
  {
    "COMPOUND": "CC1=C(C(=O)OC(C(F)(F)F)C(F)(F)F)C(c2ccco2)NC(=O)N1 (racemic)",
    "TESTED_SYSTEM": "Adenosine receptor A1 (Homo sapiens)",
    "OBSERVED_MEASUREMENT": 6
  },
  {
    "COMPOUND": "CC1=C(C(=O)OC(C(F)(F)F)C(F)(F)F)C(c2ccoc2)NC(=O)N1 (racemic)",
    "TESTED_SYSTEM": "Adenosine receptor A1 (Homo sapiens)",
    "OBSERVED_MEASUREMENT": 7
  }
]

Proceeding to the next compound to report its inhibition.
Could you share which inhibition value was measured for CC1=C(C(=O)OC(C(F)(F)F)C(F)(F)F)C(c2ccco2)n2c(nc3ccccc32)N1 (racemic) ?
16

Each recorded value in this set is attributed to ChEMBL document CHEMBL4414598.
